Kindly supply the reported pest or weed control at 100 ppm values for the records listed here.
System: Erysiphe cichoracearum
Experiment: Powdery Mildew of Cucumber (ERYSCI) disease control
Format: in vivo
Conditions: Golovinomyces cichoracearum, topical, 24 h, 1 Day Protectant, read-out: Disease Control ERYSCI 1 DP

Recorded pest or weed control at 100 ppm for CCCO[C@@H]1[C@@H](Cc2ccc(F)cc2)CCC[C@H](NC(=O)c2nccc(OC)c2OCOC(=O)COCC)C(=O)O[C@H]1C with Erysiphe cichoracearum, please?
80 to 100%

Next molecule up: COc1ccnc(C(=O)N[C@H]2CCC[C@H](Cc3ccc(F)cc3)[C@@H](OCC3CC3)[C@H](C)OC2=O)c1OC(C)=O
0 to 80%

Next molecule up: CCCO[C@@H]1[C@@H](Cc2ccccc2)CCC[C@H](NC(=O)c2nccc(OC)c2OC(C)=O)C(=O)O[C@H]1C
80 to 100%

Next molecule up: COCC[C@H]1CCC[C@H](NC(=O)c2nccc(OC)c2OCOC(C)=O)C(=O)O[C@@H](C)[C@@H]1Oc1ccccc1
0 to 80%

Next molecule up: CCCO[C@@H]1[C@@H](Cc2ccc(F)cc2)CCC[C@H](NC(=O)c2nccc(OC)c2OCOC(C)=O)C(=O)O[C@H]1C
80 to 100%

Next molecule up: CCCO[C@@H]1[C@@H](CCC(C)C)CCC[C@H](NC(=O)c2nccc(OC)c2OCOC(C)=O)C(=O)O[C@H]1C
80 to 100%

Next molecule up: CCCO[C@@H]1[C@@H](Cc2ccccc2)CCC[C@H](NC(=O)c2nccc(OC)c2OCOC(C)=O)C(=O)O[C@H]1C
80 to 100%

Next molecule up: COc1ccnc(C(=O)N[C@H]2CCC[C@H](CC3CCCCC3)[C@@H](OCC(C)C)[C@H](C)OC2=O)c1OCOC(C)=O
80 to 100%

Next molecule up: COc1ccnc(C(=O)N[C@H]2CCC[C@H](Cc3ccc(F)cc3F)[C@@H](OCC(C)C)[C@H](C)OC2=O)c1OCOC(C)=O
80 to 100%

Next molecule up: COc1ccnc(C(=O)N[C@H]2CCC[C@H](CC3CCCC3)[C@@H](OCC3CC3)[C@H](C)OC2=O)c1OCOC(C)=O
80 to 100%

Next molecule up: COc1ccc(C[C@H]2CCC[C@H](NC(=O)c3nccc(OC)c3OCOC(C)=O)C(=O)O[C@@H](C)[C@@H]2OCC(C)C)cc1
0 to 80%

Next molecule up: CCOCC(=O)OCOc1c(OC)ccnc1C(=O)N[C@H]1CCC[C@H](Cc2ccccc2)[C@@H](OCC(C)C)[C@H](C)OC1=O
80 to 100%

Next molecule up: COc1ccnc(C(=O)N[C@H]2CCC[C@H](CCF)[C@@H](OCC(C)C)[C@H](C)OC2=O)c1OCOC(C)=O
0 to 80%

---

Kindly supply the reported pest or weed control at 25 ppm values for the records listed here.
System: Phakopsora pachyrhizi
Assay: Asian Soybean Rust (PHAKPA) disease control
Type: in vivo
Conditions: Phakopsora pachyrhizi, topical, 72 h, 3 Day Curative, read-out: Disease Control PHAKPA 3DC
Experimental: Technical grades of materials were dissolved in acetone, which were then mixed with nine volumes of water containing 0.011% Tween 20. The fungicide solutions were applied onto soybean seedlings using an automated booth sprayer to run-off. All sprayed plants were allowed to air dry prior to further handling. Soybean plants (variety Williams 82) were grown in soil-less Metro mix, with one plant per pot. Two weeks old seedlings were used for testing. […] Disease severity was assessed on the sprayed leaves.

Recorded pest or weed control at 25 ppm for CCOCC(=O)OCOc1c(OC)ccnc1C(=O)N[C@H]1CCC[C@H](Cc2ccc(F)cc2F)[C@@H](OC(=O)c2ccco2)[C@H](C)OC1=O with Phakopsora pachyrhizi, please?
0 to 80%

Next compound up: COc1ccnc(C(=O)N[C@H]2CCC[C@H](CC3CCCC3)[C@@H](OCC3CC3)[C@H](C)OC2=O)c1OCOC(C)=O
80 to 100%

Next compound up: C=C[C@H]1CCC[C@H](NC(=O)c2nccc(OC)c2OCOC(C)=O)C(=O)O[C@@H](C)[C@@H]1Oc1ccccc1
80 to 100%

Value source: patent US9265253B2
